- system: Carbonic anhydrase 12 (Homo sapiens)
- Sequence (O43570 whole entry): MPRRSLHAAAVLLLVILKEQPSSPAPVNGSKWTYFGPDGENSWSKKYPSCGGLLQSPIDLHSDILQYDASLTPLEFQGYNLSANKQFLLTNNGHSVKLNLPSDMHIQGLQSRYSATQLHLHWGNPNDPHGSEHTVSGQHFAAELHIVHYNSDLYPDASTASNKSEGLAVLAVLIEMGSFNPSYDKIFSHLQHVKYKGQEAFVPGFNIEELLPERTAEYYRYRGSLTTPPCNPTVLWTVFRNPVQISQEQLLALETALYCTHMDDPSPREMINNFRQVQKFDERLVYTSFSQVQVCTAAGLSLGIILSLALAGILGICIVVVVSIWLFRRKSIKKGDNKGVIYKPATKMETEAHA
- run.description: Binding affinity to recombinant human CA12 by DSF-based fluorescence thermal shift assay
test.readout: Kd (µM)

Past entries and their recorded results:
Given the entry Cc1cc(N2CC(c3n[nH]c(=S)n3-c3ccccc3)CC2=O)c(Cl)c(C)c1S(N)(=O)=O (stereo not given) , report its measured Kd.
0.5

Given the entry Cc1cc(N2CC(C(=O)NN)CC2=O)cc(C)c1S(N)(=O)=O (stereo not given) , report its measured Kd.
50

Given the entry Cc1cc(S(N)(=O)=O)c(C)cc1N1CC(C(=O)O)CC1=O (stereo not given) , report its measured Kd.
8.1

Given the entry Cc1cc(N2CC(C(=O)N/N=C/c3ccc(Br)cc3)CC2=O)cc(C)c1S(N)(=O)=O (stereo not given) , report its measured Kd.
33

I. Cc1cc(N2CC(C(=O)NNC(=S)Nc3ccccc3)CC2=O)cc(C)c1S(N)(=O)=O (stereo not given)
II. Cc1cc(N2CC(C(=O)N/N=C/c3ccc(Cl)cc3)CC2=O)c(Cl)c(C)c1S(N)(=O)=O (stereo not given)
III. Cc1cc(S(N)(=O)=O)c(C)cc1N1CC(C(=O)NN)CC1=O (stereo not given)
IV. Cc1cc(NCC(CC(=O)O)c2n[nH]c(=S)n2-c2ccccc2)cc(C)c1S(N)(=O)=O (stereo not given)
Descending sort on Kd required. List the labels in the requested order.
IV, III, I, II
(IV: 50 µM, III: 21 µM, I: 5 µM, II: 2 µM)

====

- system: Carbonic anhydrase 4 (Homo sapiens, UniProt P22748)
- Sequence (P22748 whole entry): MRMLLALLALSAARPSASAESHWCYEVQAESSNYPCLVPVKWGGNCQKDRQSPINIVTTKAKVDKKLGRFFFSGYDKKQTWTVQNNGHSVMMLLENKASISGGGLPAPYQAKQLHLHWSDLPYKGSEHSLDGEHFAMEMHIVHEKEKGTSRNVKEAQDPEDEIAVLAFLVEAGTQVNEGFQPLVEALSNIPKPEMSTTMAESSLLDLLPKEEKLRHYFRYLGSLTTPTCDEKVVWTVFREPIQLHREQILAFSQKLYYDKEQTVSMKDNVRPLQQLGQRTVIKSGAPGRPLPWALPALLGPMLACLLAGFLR
- run.description: Binding affinity to recombinant human CA4 by DSF-based fluorescence thermal shift assay
pKd: −log10 of the molar value.
test.readout: pKd

a. NS(=O)(=O)c1ccc(N2CC(C(=O)N/N=C/c3ccccc3)CC2=O)cc1 (stereo not given)
b. COC(=O)C1CC(=O)N(c2cc(C)c(S(N)(=O)=O)cc2C)C1 (stereo not given)
c. Cc1cc(N2CC(C(=O)O)CC2=O)c(Cl)c(C)c1S(N)(=O)=O (stereo not given)
# sort list by recorded pKd, greatest to least List the labels in the requested order.
c, a, b

====

- system: Carbonic anhydrase 6 (Homo sapiens)
- Sequence (P23280 whole entry): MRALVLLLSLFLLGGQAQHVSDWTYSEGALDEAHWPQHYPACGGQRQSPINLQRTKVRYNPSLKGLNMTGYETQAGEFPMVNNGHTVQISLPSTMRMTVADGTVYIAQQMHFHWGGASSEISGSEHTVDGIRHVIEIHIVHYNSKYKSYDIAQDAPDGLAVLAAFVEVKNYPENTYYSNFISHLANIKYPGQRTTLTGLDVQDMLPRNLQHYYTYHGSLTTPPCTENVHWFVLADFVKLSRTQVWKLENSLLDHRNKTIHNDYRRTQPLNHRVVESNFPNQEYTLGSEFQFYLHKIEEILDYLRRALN
- run.description: Binding affinity to recombinant human CA6 by DSF-based fluorescence thermal shift assay
pKd: −log10 of the molar value.
test.readout: pKd

Past entries and their recorded results:
Given the entry COC(=O)C1CC(=O)N(c2cc(C)c(S(N)(=O)=O)c(C)c2)C1 (stereo not given) , report its measured pKd.
4.30

Given the entry Cc1cc(N2CC(C(=O)N/N=C/c3ccc(Br)cc3)CC2=O)c(Cl)c(C)c1S(N)(=O)=O (stereo not given) , report its measured pKd.
6.04

Given the entry Cc1cc(C)n(NC(=O)C2CC(=O)N(c3cc(C)c(S(N)(=O)=O)c(C)c3Cl)C2)n1 (stereo not given) , report its measured pKd.
5.48

a. Cc1cc(N2CC(C(=O)O)CC2=O)c(Cl)c(C)c1S(N)(=O)=O (stereo not given)
b. Cc1cc(N2CC(C(=O)N/N=C/c3ccccc3)CC2=O)c(Cl)c(C)c1S(N)(=O)=O (stereo not given)
For this pair, a and b , which shows a numerically higher pKd? Choose, then provide that item's label.
b

====

- system: Carbonic anhydrase 12 (Homo sapiens)
- run.description: Binding affinity to recombinant human CA12 by DSF-based fluorescence thermal shift assay
test.readout: Kd (µM)

A. NS(=O)(=O)c1ccc(N2CC(C(=O)N/N=C/c3ccccc3)CC2=O)cc1 (centres undefined)
B. Cc1cc(N2CC(C(=O)N/N=C/c3ccccc3)CC2=O)c(Cl)c(C)c1S(N)(=O)=O (centres undefined)
C. COC(=O)C1CC(=O)N(c2ccc(S(N)(=O)=O)cc2)C1 (centres undefined)
D. Cc1cc(N2CC(c3n[nH]c(=S)n3-c3ccccc3)CC2=O)cc(C)c1S(N)(=O)=O (centres undefined)
Arrange these 4 molecules in increasing order of Kd. List the labels in the requested order.
B, A, C, D
